- Tested on: HFL-1 cells
- procedure_summary: IL8 assay in the presence of Human Serum Albumin
- Type: cell-based
- assay_context: HFL1, S1P (5 μM) induced IL-8, HFL-1 cells, with 2% HSA, read-out: HSA IL8 EC50
metric_name: IC50

molecule: Cc1cc(CNC(=O)Nc2cc(OCC(=O)N(C)C)nc(C(F)(F)F)c2)nnc1-c1cn(C)nc1C(F)(F)F
experimental_result: 9950 nM
--
molecule: CCOc1cc(NC(=O)NCc2cc(C)c(-c3cn(C)nc3C(F)(F)F)nn2)cc(C#N)n1
experimental_result: 29 nM
--
molecule: CCOc1cc(NC(=O)NCc2cc(C)c(N3CC(C)OC(C)C3)nn2)cc(C(F)(F)F)n1 (stereo not shown)
experimental_result: 2170 nM
--
molecule: Cc1cc(CNC(=O)Nc2cc(Cl)nc(Cl)c2)nnc1-c1cn(C)nc1C(F)(F)F
experimental_result: 393 nM
--
molecule: CCOc1nc(C#N)cc(NC(=O)NCc2cc(C)c(-c3cn(C)nc3C(F)(F)F)nn2)c1C
experimental_result: 17.3 nM
--
molecule: CCOc1nc(C(F)(F)F)cc(NC(=O)NC(C)c2cc(C)c(-c3cn(C)nc3C(F)(F)F)nn2)c1C (stereo not shown)
experimental_result: 84.2 nM
--
molecule: CCOc1cc(NC(=O)NCc2cc(C)c(-c3cn(CC(C)O)nc3C(F)(F)F)nn2)cc(C(F)(F)F)n1 (stereo not shown)
experimental_result: 98.5 nM

###

EC50 values by entry
- experimental_target: human GPCR sphingosine 1-phosphate receptor 2 (S1PR2) (Homo sapiens, UniProt O95136)
- Sequence (O95136 whole entry): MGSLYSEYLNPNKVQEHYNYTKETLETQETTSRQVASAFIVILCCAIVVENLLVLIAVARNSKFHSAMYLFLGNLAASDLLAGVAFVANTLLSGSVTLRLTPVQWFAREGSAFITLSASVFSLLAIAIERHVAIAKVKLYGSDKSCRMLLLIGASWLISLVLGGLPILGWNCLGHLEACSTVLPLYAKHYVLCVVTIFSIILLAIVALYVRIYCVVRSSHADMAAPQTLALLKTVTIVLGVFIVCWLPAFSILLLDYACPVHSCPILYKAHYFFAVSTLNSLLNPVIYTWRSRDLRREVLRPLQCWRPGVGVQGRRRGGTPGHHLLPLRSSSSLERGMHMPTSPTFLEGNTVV
- procedure_summary: S1P2 antagonist assay (Ca2+ flux, S1P at EC80)
- assay_context: CHO-S1PR2 cells, highest concentration 20 μM
metric_name: EC50

compound: Cc1cc(CNC(=O)Nc2cc(OCC(F)F)nc(C3CC3)c2)nnc1-c1cn(C)nc1C(F)(F)F
experimental_result: 27.3 nM
--
compound: CCOc1cc(NC(=O)NCc2cc(C)c(-c3cn(C)nc3C(F)(F)F)nn2)cc(Cl)n1
experimental_result: 8.5 nM
--
compound: CCOc1cc(NC(=O)NCc2cc(C)c(-c3cn(CC(C)O)nc3C(F)(F)F)nn2)cc(C(F)(F)F)n1 (stereo not shown)
experimental_result: 11.2 nM
--
compound: CCOc1cc(N/C(=N/C#N)NCc2cc(C)c(-c3cn(C)nc3C(F)(F)F)nn2)cc(C(F)(F)F)n1
experimental_result: 17 nM

###

- experimental_target: human GPCR sphingosine 1-phosphate receptor 2 (S1PR2) (Homo sapiens, UniProt O95136)
- procedure_summary: S1P2 antagonist assay (Ca2+ flux, S1P at EC80)
- assay_context: CHO-S1PR2 cells, highest concentration 20 μM
- Method: Triggering of S1PR2 by administration of Sphingosine-1-phosphate leads to a transient increase in intracellular Ca^2+. The Ca^2+ flux assays are measuring the release of Ca^2+ intracellularly by use of a Ca^2+ sensitive fluorescent dye. The assay is firstly run in agonist mode (incubation of compounds alone) to ensure that the Ca^2+ released measured is not caused by the test compound having an agonistic effect. […]

compound: Cc1cc(CNC(=O)Nc2ccnc(Cl)c2)nnc1-c1cn(C)nc1C(F)(F)F [Compound 44]
display_unit: nM
EC50: 4500
//
compound: CCOc1cc(NC(=O)NCc2cc(C)c(-c3cn(C)nc3C(F)(F)F)nn2)cc(C)n1 [Compound 35]
display_unit: nM
EC50: 74.5
//
compound: COc1cc(CNC(=O)Nc2cc(Cl)nc(OCC(F)F)c2)nnc1-c1cn(C)nc1C(F)(F)F [Compound 64]
display_unit: nM
EC50: 8.5
//
compound: CCOc1cc(NC(=O)NCc2cc(C)c(-c3cn(C)nc3C(F)(F)F)nn2)cc(C2CC2)n1 [Compound 22]
display_unit: nM
EC50: 17.3

###

- experimental_target: human GPCR sphingosine 1-phosphate receptor 1 (S1PR1) (Homo sapiens, UniProt P21453)
- Sequence (P21453 whole entry): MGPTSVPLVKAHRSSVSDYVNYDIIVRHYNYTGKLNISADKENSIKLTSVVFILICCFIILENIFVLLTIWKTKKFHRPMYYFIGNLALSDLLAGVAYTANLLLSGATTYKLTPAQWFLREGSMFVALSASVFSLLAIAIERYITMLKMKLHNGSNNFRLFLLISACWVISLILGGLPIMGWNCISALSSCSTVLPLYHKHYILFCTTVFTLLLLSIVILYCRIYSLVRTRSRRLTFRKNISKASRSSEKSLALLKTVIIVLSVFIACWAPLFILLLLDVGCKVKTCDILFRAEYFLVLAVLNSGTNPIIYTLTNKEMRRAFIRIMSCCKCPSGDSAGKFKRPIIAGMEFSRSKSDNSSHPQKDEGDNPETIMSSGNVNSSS
- procedure_summary: S1PR1 selectivity assay (Ca2+ flux, antagonist)
- assay_context: S1P1 antagonist EC50, CHO cells overexpressing human S1PR1 and Gq protein
Values of EC50 strictly less than 5 µM map to true (1), and values of at least 5 µM map to false (0).

compound: Cc1cc(NC(=O)NCc2cc(C)c(-c3cn(C)nc3C(F)(F)F)nn2)c(C)c(OCC(F)F)n1
experimental_target: human GPCR sphingosine 1-phosphate receptor 1 (S1PR1) (Homo sapiens, UniProt P21453)
label_class: false (0)

compound: Cc1cc(CNC(=O)Nc2cc(OC3CCOC3)nc(C(F)(F)F)c2)nnc1-c1cn(C)nc1C(F)(F)F (stereo not shown)
experimental_target: human GPCR sphingosine 1-phosphate receptor 1 (S1PR1) (Homo sapiens, UniProt P21453)
label_class: false (0)

compound: Cc1cc(CNC(=O)Nc2cnc(OCC(F)F)c(Cl)c2)nnc1-c1cn(C)nc1C(F)(F)F
experimental_target: human GPCR sphingosine 1-phosphate receptor 1 (S1PR1) (Homo sapiens, UniProt P21453)
label_class: false (0)

compound: CCOc1cc(NC(=O)NCc2cc(C)c(-c3cn(C)nc3C(F)(F)F)nn2)cc(C)n1
experimental_target: human GPCR sphingosine 1-phosphate receptor 1 (S1PR1) (Homo sapiens, UniProt P21453)
label_class: false (0)

compound: Cc1cc(CNC(=O)Nc2ccnc(Cl)c2)nnc1-c1cn(C)nc1C(F)(F)F
experimental_target: human GPCR sphingosine 1-phosphate receptor 1 (S1PR1) (Homo sapiens, UniProt P21453)
label_class: false (0)

compound: Cc1cc(CNC(=O)Nc2cc(OCC(C)(F)F)nc(C(F)(F)F)c2)nnc1-c1cn(C)nc1C(F)(F)F
experimental_target: human GPCR sphingosine 1-phosphate receptor 1 (S1PR1) (Homo sapiens, UniProt P21453)
label_class: true (1)

compound: CCOc1nc(Cl)cc(NC(=O)NCc2cc(C)c(-c3cn(C)nc3C(F)(F)F)nn2)c1C
experimental_target: human GPCR sphingosine 1-phosphate receptor 1 (S1PR1) (Homo sapiens, UniProt P21453)
label_class: true (1)

compound: Cc1cc(CNC(=O)Nc2cc(Cl)nc(OCC(F)F)c2C)nnc1-c1cn(C)nc1C(F)(F)F
experimental_target: human GPCR sphingosine 1-phosphate receptor 1 (S1PR1) (Homo sapiens, UniProt P21453)
label_class: false (0)

compound: CCOc1ncc(NC(=O)NCc2cc(C)c(-c3cn(C)nc3C(F)(F)F)nn2)cc1C(F)(F)F
experimental_target: human GPCR sphingosine 1-phosphate receptor 1 (S1PR1) (Homo sapiens, UniProt P21453)
label_class: false (0)

compound: CCOc1nc(C)cc(NC(=O)NCc2cc(C)c(N3C[C@@H](C)O[C@@H](C)C3)nn2)c1C
experimental_target: human GPCR sphingosine 1-phosphate receptor 1 (S1PR1) (Homo sapiens, UniProt P21453)
label_class: false (0)

compound: COc1cc(CNC(=O)Nc2cc(Cl)nc(OCC(F)F)c2)nnc1-c1cn(C)nc1C(F)(F)F
experimental_target: human GPCR sphingosine 1-phosphate receptor 1 (S1PR1) (Homo sapiens, UniProt P21453)
label_class: true (1)

compound: CCOc1cc(NC(=O)NCc2cc(C)c(-c3cnn(C)c3C)nn2)cc(C(F)(F)F)n1
experimental_target: human GPCR sphingosine 1-phosphate receptor 1 (S1PR1) (Homo sapiens, UniProt P21453)
label_class: false (0)

compound: CCOc1nc(C)cc(N/C(=N/C#N)NCc2cc(C)c(-c3cn(C)nc3C(F)(F)F)nn2)c1C
experimental_target: human GPCR sphingosine 1-phosphate receptor 1 (S1PR1) (Homo sapiens, UniProt P21453)
label_class: false (0)

compound: CCOc1cc(NC(=O)NCc2cc(C)c(-c3cn(C)nc3C(F)(F)F)nn2)cc(Cl)n1
experimental_target: human GPCR sphingosine 1-phosphate receptor 1 (S1PR1) (Homo sapiens, UniProt P21453)
label_class: true (1)

compound: Cn1cc(-c2nnc(CNC(=O)Nc3cc(Cl)nc(OCC(F)F)c3)cc2N2CCOCC2)c(C(F)(F)F)n1
experimental_target: human GPCR sphingosine 1-phosphate receptor 1 (S1PR1) (Homo sapiens, UniProt P21453)
label_class: true (1)

compound: CCOc1cc(NC(=O)NCc2cc(C)c(-c3cn(C)nc3C)nn2)cc(Cl)n1
experimental_target: human GPCR sphingosine 1-phosphate receptor 1 (S1PR1) (Homo sapiens, UniProt P21453)
label_class: false (0)

###

- experimental_target: human GPCR sphingosine 1-phosphate receptor 2 (S1PR2) (Homo sapiens)
- Construct: host or cells: CHO
- procedure_summary: S1P2 antagonist assay (Ca2+ flux, S1P at EC80)
- Type: cell-based
- assay_context: CHO-S1PR2 cells, highest concentration 20 μM
pEC50: −log10 of the molar value.

compound: CCOc1cc(NC(=O)NCc2cc(C)c(-c3cn(C)nc3C(F)(F)F)nn2)nc(OCC)n1 [Compound 31]
experimental_target: human GPCR sphingosine 1-phosphate receptor 2 (S1PR2) (Homo sapiens)
pEC50: 5.50
--
compound: Cc1cc(NC(=O)NCc2cc(C)c(-c3cn(C)nc3C(F)(F)F)nn2)c(C)c(OCC(F)F)n1 [Compound 74]
experimental_target: human GPCR sphingosine 1-phosphate receptor 2 (S1PR2) (Homo sapiens)
pEC50: 7.66
--
compound: Cc1cc(CNC(=O)Nc2cc(Cl)nc(OCC(F)F)c2)nnc1N1CCC(S(C)(=O)=O)C1 (stereo not drawn) [Compound 91]
experimental_target: human GPCR sphingosine 1-phosphate receptor 2 (S1PR2) (Homo sapiens)
pEC50: 6.28
--
compound: Cc1cc(CNC(=O)Nc2cnc(OCC3CC3)c(Cl)c2)nnc1-c1cn(C)nc1C(F)(F)F [Compound 13]
experimental_target: human GPCR sphingosine 1-phosphate receptor 2 (S1PR2) (Homo sapiens)
pEC50: 7.39
--
compound: Cc1cc(CNC(=O)Nc2cc(Cl)nc(OCC(F)F)c2)nnc1N1CCOC(C(F)(F)F)C1 (stereo not drawn) [Compound 89]
experimental_target: human GPCR sphingosine 1-phosphate receptor 2 (S1PR2) (Homo sapiens)
pEC50: 7.47
--
compound: Cc1cc(CNC(=O)Nc2cc(Cl)nc(OCC(F)(F)F)c2)nnc1-c1cn(C)nc1C(F)(F)F [Compound 14]
experimental_target: human GPCR sphingosine 1-phosphate receptor 2 (S1PR2) (Homo sapiens)
pEC50: 7.62
--
compound: Cc1cc(CNC(=O)Nc2cc(C#N)nc(OCC(F)F)c2)nnc1-c1cn(C)nc1C(F)(F)F [Compound 28]
experimental_target: human GPCR sphingosine 1-phosphate receptor 2 (S1PR2) (Homo sapiens)
pEC50: 7.80
--
compound: CCOc1cc(NC(=O)NCc2cc(C)c(N3CCC(F)(F)C3)nn2)cc(Cl)n1 [Compound 81]
experimental_target: human GPCR sphingosine 1-phosphate receptor 2 (S1PR2) (Homo sapiens)
pEC50: 8.22
--
compound: Cc1cc(CNC(=O)Nc2cc(OCC3CC(F)(F)C3)nc(C(F)(F)F)c2)nnc1-c1cn(C)nc1C(F)(F)F [Compound 42]
experimental_target: human GPCR sphingosine 1-phosphate receptor 2 (S1PR2) (Homo sapiens)
pEC50: 6.53
--
compound: Cn1cc(-c2nnc(CNC(=O)Nc3cc(Cl)nc(OCC(F)F)c3)cc2N2CCOCC2)c(C(F)(F)F)n1 [Compound 62]
experimental_target: human GPCR sphingosine 1-phosphate receptor 2 (S1PR2) (Homo sapiens)
pEC50: 5.50
--
compound: Cn1cc(-c2nnc(CNC(=O)Nc3cc(Cl)nc(OCC(F)F)c3)cc2N2CC(F)(F)C2)c(C(F)(F)F)n1 [Compound 60]
experimental_target: human GPCR sphingosine 1-phosphate receptor 2 (S1PR2) (Homo sapiens)
pEC50: 5.48
--
compound: CCOc1nc(Cl)cc(NC(=O)NCc2cc(C)c(-c3cn(C)nc3C(F)(F)F)nn2)n1 [Compound 38]
experimental_target: human GPCR sphingosine 1-phosphate receptor 2 (S1PR2) (Homo sapiens)
pEC50: 7.40
--
compound: CCOc1ncc(NC(=O)NCc2cc(C)c(-c3cn(C)nc3C(F)(F)F)nn2)cc1C(F)(F)F [Compound 10]
experimental_target: human GPCR sphingosine 1-phosphate receptor 2 (S1PR2) (Homo sapiens)
pEC50: 7.82
--
compound: Cc1cc(CNC(=O)Nc2cc(Cl)nc(OCC(F)F)c2)nnc1N1CCOC(CN(C)C)C1 (stereo not drawn) [Compound 97]
experimental_target: human GPCR sphingosine 1-phosphate receptor 2 (S1PR2) (Homo sapiens)
pEC50: 7.09
--
compound: CCOc1cc(NC(=O)NC(C)c2cc(C)c(-c3cn(C)nc3C(F)(F)F)nn2)cc(Cl)n1 (stereo not drawn) [Compound 3]
experimental_target: human GPCR sphingosine 1-phosphate receptor 2 (S1PR2) (Homo sapiens)
pEC50: 7.59
